Values from patent US9783509B2

# Test system: southern root-knot nematode (Meloidogyne incognita)
# MEASUREMENT DESCRIPTION: Meloidogyne incognita test (sand, lettuce, acetone solvent, 14 days)
# Type: in vivo
# DETAILS: application rate 20 ppm, after 14 days
MEASUREMENT LABEL: nematicidal efficacy (formation of galls) (%)
One number for each entry, in %.

A selection of reference data follows.
O=c1cnn(-c2cc([S+]([O-])CC(F)(F)F)c(Cl)cc2Cl)c(=O)n1CC(F)(F)F (racemic) : 90
Cc1cc(F)c(-n2ccc(=O)n(CC(F)F)c2=O)cc1[S+]([O-])CC(F)(F)F (centres unmarked) : 100
O=c1cnn(-c2cc(SCC(F)(F)F)c(Cl)cc2Cl)c(=O)[nH]1 : 90
CCn1c(=O)cnn(-c2cc([S+]([O-])CC(F)(F)F)c(C)cc2F)c1=O (racemic) : 100
Cc1ccc(-n2ccc(=O)n(CC(F)(F)F)c2=O)cc1SCC(F)(F)F : 100
Cc1cc(F)c(-n2ccc(=O)n(CC#N)c2=O)cc1[S+]([O-])CC(F)(F)F (racemic) : 100

For each of the items listed, what is its nematicidal efficacy (formation of galls)?
1. Cc1cc(F)c(-n2ccc(=O)n(CC(F)F)c2=O)cc1SCC(F)(F)F
2. Cc1cc(F)c(-n2ncc(=O)n(CC(C)C)c2=O)cc1SCC(F)(F)F

Output line:
[100, 90]
